# method notes: beta-lactam sensitization of Mtb H37Rv, H37Rv (AID 434955);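 note: growth measured after seven days incubation then overnight dye step; 0% = bacteria only wells and 100% = bacteria with antibiotic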
# protocol conditions: M. tuberculosis H37Rv growth with meropenem, percent inhibition; at 25 µM; stronger effect = higher value
Hit rate of the full screen: of about 330,000 compounds, about 880 (0.27%) were called active. Roughly 1% stayed inconclusive and do not appear here. Not all results are given here.
measurement type: inhibition (%)
Express the result in % but write the number alone.

[[record]]
molecule = "O=C(Oc1c(-c2ccco2)oc2ccccc2c1=O)c1cccnc1"
unit_of_measurement = "%"
value_observed = 92.5

[[record]]
molecule = "O=C(NCC1CCCO1)C(C(=O)c1ccccc1)n1cc(Cl)ccc1=O (stereo unspecified)"
unit_of_measurement = "%"
value_observed = 6.75

[[record]]
molecule = "Cc1ccc(-c2csc(NC(=O)C3=COCCO3)n2)cc1C"
unit_of_measurement = "%"
value_observed = 92.7

[[record]]
molecule = "O=C(C1CC(=O)N(C2CCCCC2)C1)N1CCN(c2ccccc2)CC1 (stereo unspecified)"
unit_of_measurement = "%"
value_observed = 0.44


Exam item: I'd like to know its inhibition. The molecule in question is CC/S(CC1CC1(Cl)Cl)=N\S(=O)(=O)c1ccc(C)cc1 (stereo unspecified)
Marked response: -10.6

Exam item: GET /values?readout=inhibition&item= CC(OC(=O)CN1C(=O)C2CCCCC2C1=O)C(=O)Nc1ncc(Cl)cc1Cl (stereo unspecified)
Marked response: -4.66
